From: patent US12617779B2

experiment-description: Evaluation of conversion rate to active form in buffer solution (Experimental Example 1)
Type: physicochemical
measurement-setup: pH6.5, 3 hr
experimental-readout: Production rate of Alvocidib (%)

(1) CCNC(=O)O[C@@H]1CN(C)CC[C@@H]1c1c(O)cc(O)c2c(=O)cc(-c3ccccc3Cl)oc12 [Comparative Example 4, reference compound]
(2) C[C@H](N)C(=O)O[C@@H]1CN(C)CC[C@@H]1c1c(O)cc(O)c2c(=O)cc(-c3ccccc3Cl)oc12 [Comparative Example 7, reference compound]
(3) CN1CC[C@H](c2c(O)cc(O)c3c(=O)cc(-c4ccccc4Cl)oc23)[C@H](OC(=O)[C@@H](N)CO)C1 [Comparative Example 9, reference compound]
Rank the items in ascending order with respect to Production rate of Alvocidib. Answer format: list of labels, ordered as asked.
1, 3, 2
